experimentSummary: Phase 1b trial NCT04179474, plasma ubrogepant pharmacokinetics, galcanezumab arm (Part 2)
Type: in vivo, human
reportedConditions: human, plasma, oral, 100 mg, galcanezumab arm; ubrogepant 100 mg alone, day 1; read-out: AUC0-t, geometric LSM
metricName: AUC(0-t) (ng·h/mL)
Give just the number in ng·h/mL; leave the unit off.

May I ask what AUC(0-t) has been recorded for `C[C@@H]1[C@H](c2ccccc2)C[C@H](NC(=O)c2cnc3c(c2)C[C@@]2(C3)C(=O)Nc3ncccc32)C(=O)N1CC(F)(F)F` ?
1510

###

experimentSummary: Phase 1b trial NCT04179474, plasma ubrogepant pharmacokinetics, galcanezumab arm (Part 2)
Assay type: in vivo, human
reportedConditions: human, plasma, oral; galcanezumab arm; ubrogepant 100 mg alone, day 1; read-out: Cmax, geometric LSM
metricName: Cmax (ng/mL)
All answers are understood in ng/mL, so give the number only.

I am curious: what Cmax value has been reported for C[C@@H]1[C@H](c2ccccc2)C[C@H](NC(=O)c2cnc3c(c2)C[C@@]2(C3)C(=O)Nc3ncccc32)C(=O)N1CC(F)(F)F [Ubrogepant, ubrogepant] ?
359
